Readings of CLint scaled at 1 μM for the listed compounds
# TEST DESCRIPTION: Stability test in mouse liver microsomes
# Assay type: in vitro ADME, CD-1 mice
# CONDITION SET: CD-1, pH 7.4; mouse liver microsomes 0.5 mg/mL, 1.0 μM substrate; read-out: MLM 0.5 CLint(liver)
ASSAY READOUT: CLint scaled at 1 μM

>>> df
                              sample_smiles         assay_readout           value
0  O=C(Nc1cc2cccnc2c(N2CCC(F)(F)CC2)n1)c1ccc(NS(=O)(=O)CCO)cc1N1CCC2(CC1)CC2  CLint scaled at 1 μM  < 38 mL/min/kg
1  O=C(Nc1cc2ccccc2c(N2CCC(F)(F)CC2)n1)c1ccc(NS(=O)(=O)CCO)cc1N1CCC2(CC1)CC2  CLint scaled at 1 μM  < 38 mL/min/kg
2  O=C(Nc1cn2ncnc2c(N2CCC(F)(F)CC2)n1)c1ccc(NS(=O)(=O)CCO)cc1N1CCC2(CC1)CC2  CLint scaled at 1 μM  < 38 mL/min/kg

---

# TEST DESCRIPTION: Stability test in mouse liver microsomes
# Type: in vitro ADME, CD-1 mice
# CONDITION SET: CD-1, pH 7.4; mouse liver microsomes 0.5 mg/mL, 1.0 μM substrate; read-out: MLM 0.5 T½
# Experimental: The phase I metabolic stability of the compounds in liver microsomes of CD-1 mice, Sprague-Dawley rats, beagle dogs, cynomolgus monkeys, and humans was assessed. The animal and human liver microsomes used in the test system were purchased from Xenotech, Corning, or other qualified suppliers and stored in a freezer at a temperature below −60° C. prior to use. […]
Overview of reported half-life at 1 μM across a group of compounds:
ASSAY READOUT: half-life at 1 μM (h)

                              sample_smiles      assay_readout  sign  value
0  O=C(Nc1cc2ccccc2c(N2CCC(F)(F)CC2)n1)c1ccc(NS(=O)(=O)CCO)cc1N1CCC2(CC1)CC2  half-life at 1 μM     >   2.42
1  CS(=O)(=O)Nc1ccc(C(=O)Nc2cn3ccnc3c(N3CCC(F)(F)CC3)n2)c(N2CC3CCC(C3)C2)c1  half-life at 1 μM     =   1.75
2  CS(=O)(=O)Nc1ccc(C(=O)Nc2cc3cc[nH]c3c(N3CCC(F)(F)CC3)n2)c(N2CCC3(CC2)CC3)c1  half-life at 1 μM     =   40.3
3  O=C(Nc1cc2c(c(N3CCC(F)(F)CC3)n1)COC2)c1ccc(NS(=O)(=O)CCO)cc1N1CCC2(CC1)CC2  half-life at 1 μM     =   1.69

---

# TEST DESCRIPTION: Pharmacokinetic test in mice
# Format: in vivo
# CONDITION SET: mouse, plasma, 30 mg/kg; BALB/c mice, PO @30mpk
AUC: recorded values
ASSAY READOUT: AUC (µM·h)

In [3]: df
Out[3]:
                                   compound  assay_readout  value
0  O=C(Nc1cn2c(F)cnc2c(N2CCC(F)(F)CC2)n1)c1ccc(NS(=O)(=O)CCO)cc1N1CCC2(CC1)CC2 [Compound 34]            AUC    220
1  O=C(Nc1cn2c(F)cnc2c(N2CCC(F)(F)CC2)n1)c1ccc(NS(=O)(=O)CCO)cc1N1CC2CCC(C2)C1 [Compound 51]            AUC    272
2  CS(=O)(=O)Nc1ccc(C(=O)Nc2cn3ccnc3c(N3CCC(F)(F)CC3)n2)c(N2CC3CCC(C3)C2)c1 [Compound 19]            AUC    320
3  Cn1ncc2cc(NC(=O)c3ccc(NS(C)(=O)=O)cc3N3CC4CCC(C4)C3)nc(N3CCC(F)(F)CC3)c21 [Compound 56]            AUC    436
